Reported GI50 values follow for various compounds
- Tested on: SN12C
- testName: NCI tumour cell line growth inhibition, 48 h
Calls of active or inactive are those of the source. Rule as the data show it: active = GI50 up to about 1.1 µM and inactive = higher.

compound: O=[N+]([O-])c1cccnc1S(=O)(=O)c1ccccc1
GI50: 9.2 µM (inactive)

compound: O=C(NCP(=O)(O)O)c1cccnc1
GI50: > 100 µM (inactive)

compound: NC1CCC(c2cc3ccccc3s2)(N2CCCCC2)CC1 (centres undefined)
GI50: 1.67 µM (inactive)

Next, consider the following compound.
Could you please provide reported GI50 for `COc1ccc(-c2nc(O)c3ccccc3n2)c(OC)c1` ? Thanks!
> 100 µM (inactive)

====

- Tested on: HCT-116
- testName: NCI tumour cell line growth inhibition, 48 h
Active and inactive are the calls of the source. Cut-off read from the data, not from the text of the source: active = GI50 up to about 1.1 µM and inactive = higher.
Output constraint: value belongs to true (1) for active, false (0) for inactive

molecule: CC1(C)C[C@H]2[C@H](O)C(CO)=C3C(=O)[C@@H](O)[C@]3(C)[C@H]2C1
systemName: HCT-116
classLabel: false (0)
//
molecule: NC(=S)Nc1c(S(N)(=O)=O)cc(S(N)(=O)=O)c(Cl)c1Cl
systemName: HCT-116
classLabel: false (0)
//
molecule: C=C1CCCCCCCCCCC1[S+]([O-])c1ccccc1 (centres undefined)
systemName: HCT-116
classLabel: false (0)
//
molecule: COC(=O)c1ccccc1C1CN=NC12Cc1ccc(C)c(C)c1C2=O (centres undefined)
systemName: HCT-116
classLabel: false (0)
//
molecule: O=C(Nc1ccc(Cl)cc1)c1cc2cc(/N=N/c3ccccc3Cl)ccc2oc1=O
systemName: HCT-116
classLabel: false (0)

Just curious, what result did NC(=O)c1cccc(OCC(O)CO)c1 (centres undefined) get here?
false (0)

State the result this test recorded for `Nc1nnc2c(-c3ccccc3)n[nH]c2n1` .
false (0)

For this molecule, state the assay outcome: `COC(=O)c1cc(C#N)[nH]c1-c1cccs1`
false (0)

What is the recorded call for this molecule in the test? CC(CN1CC(=O)NC(=O)C1)N1CC(=O)NC(=O)C1 (centres undefined)
false (0)

Could you please tell me the result logged for CC(O)C(N/C=C1/N=C(c2ccccc2)OC1=O)C(=O)O (centres undefined) in this assay?
false (0)

Any idea what this test logged for `CN(C)CCNC(=O)c1cccc2nc3c(C(=O)NCCN(C)C)cccc3nc12` ?
true (1)

For COC(=O)C12C3C4C5C3(C#N)C1C5(C(=O)OC)C42C(=O)N(C(C)C)C(C)C (centres undefined) , which call appears in the assay record?
false (0)

Entry `CCc1cn2c(/C=N/N=C(N)N)c(-c3cc(C)c(Cl)cc3Cl)nc2s1` : call = ?
true (1)

So what was the verdict on `CC(C)=CCN=C(N)N` in this test?
false (0)

Can you look up the reported call for O=C(c1ccccc1)C1OC12C(=O)Nc1ccccc12 (centres undefined) for me?
false (0)

Status in this test for Nc1ncnc2c1ncn2C1CC(OCc2ccccc2[N+](=O)[O-])C(CO)O1 (centres undefined) ?
false (0)

What did the test return for `O=C1Nc2ccccc2N/C1=C\C(=O)C(F)F` ?
false (0)

Recorded test outcome, item `Cc1cccc(/C=C2/C(=O)Nc3ccccc32)n1`
false (0)

Per the assay record, what outcome was assigned to `CN(C)CCNc1nc2c(c(=O)n(C)c(=O)n2C)n1C` ?
false (0)

Which outcome was entered for the molecule C=C(C)C1CC[C@@](C)(O)[C@H](C#N)C1 (some centres undefined) in this test?
false (0)

Entry `N/C(=N\O)N/N=C\c1ccc(O)c(O)c1O` : call = ?
false (0)

Check the results log: what was the call for `COc1ccc(/N=C2\C(=N/c3ccc(OC)cc3)N(c3ccc(N(C)C)cc3)C(=S)N2c2ccc(OC)cc2)cc1` ?
false (0)

Each recorded value in this set is attributed to ChEMBL document CHEMBL1201862.
